Provenance of the data: patent US11466066B2

test system: MFc7 mouse renal myofibroblasts; assay: MFc7 bioassay; assay type: cell-based; conditions: EC50 of wild type BMP7 protein/EC50 of the variant; single amino acid change (Table 4)
Quantity Kind: Average Relative Potency

{"columns": ["Molecule", "Result Value"],
 "data": [
  ["V114M: SEQ ID NO: 2 having the single amino acid mutation V114M (protein, listed as Homo sapiens) STGSKQRSQNRSKTPKNQEALRMANVAENSSSDQRQACKKHELYVSFRDLGWQDWIIAPEGYAAYYCEGECAFPLNSYMNATNHAIVQTLVHFINPETVPKPCCAPTQLNAISMLYFDDSSNVILKKYRNMVVRACGCH", 9.4],
  ["N110G: SEQ ID NO: 2 having the single amino acid mutation N110G (protein, listed as Homo sapiens) STGSKQRSQNRSKTPKNQEALRMANVAENSSSDQRQACKKHELYVSFRDLGWQDWIIAPEGYAAYYCEGECAFPLNSYMNATNHAIVQTLVHFINPETVPKPCCAPTQLGAISVLYFDDSSNVILKKYRNMVVRACGCH", 1.7],
  ["V91M: SEQ ID NO: 2 having the single amino acid mutation V91M (protein, listed as Homo sapiens) STGSKQRSQNRSKTPKNQEALRMANVAENSSSDQRQACKKHELYVSFRDLGWQDWIIAPEGYAAYYCEGECAFPLNSYMNATNHAIVQTLMHFINPETVPKPCCAPTQLNAISVLYFDDSSNVILKKYRNMVVRACGCH", 3.3]
]}
